- System: ABL1-nonphosphorylated;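 further: KINOMEscan scanMAX binding as percent activity remaining versus control; lower means stronger binding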
- studyConditions: Compound Concentration (nM):1000
measurementType: Percent Control (%)
Your answer is read as %, so omit the unit and give the number.

Worked cases, answers included:
• NS(=O)(=O)c1ccc(N/N=C2\C(=O)Nc3ccc(Cl)cc32)cc1 [GW280670X] = 93
• O=C1Nc2ccc(C(=O)c3ccco3)cc2C1=Cc1cc(Cl)c(O)c(Cl)c1 [GW406108X] = 87
• COc1cc(C)c(N(C)C(=O)CN(C)C)cc1Nc1nc(Nc2cccc(F)c2C(N)=O)c2cc[nH]c2n1 [GSK2219385] = 69
• COc1cc(/C=N/Nc2ncnc3[nH]ncc23)ccc1O [GW578748X] = 3.1
• CCc1ccc(Oc2nccc(-c3c(-c4ccc(F)cc4)ncn3C3CCNCC3)n2)cc1 [SB-242719] = 74
• COc1cc2ncnc(Nc3ccc4c(cnn4Cc4ccccc4)c3)c2cc1OC.Cl [GW282449A] = 90

Percent Control for COc1cc(N2CCN(C(C)C)CC2)ccc1Nc1nc(Nc2ccc(F)cc2C(=O)NC[C@@H](O)CO)c2cc[nH]c2n1 [GSK1392956A] ?
100

Do the same for CN1CCN(C(=O)c2ccc(NC(=O)Nc3ccc(N(C)c4ccnc(Nc5ccc(CS(C)(=O)=O)cc5)n4)cc3)cc2)CC1.Cl [GW830263A] please
9

Do the same for CCS(=O)(=O)c1ccc(OC)c(Nc2ncc(-c3cccc(F)c3)o2)c1 [GW621970X] please
20

Do the same for CC1=C(C(=O)Nc2ccc3[nH]ncc3c2)C(c2ccc(Cl)c(Cl)c2)CC(=O)N1 (centres unmarked) [GSK299115A] please
74

Do the same for NS(=O)(=O)c1ccc(N/N=C2\C(=O)Nc3ccc(C(=O)NCc4ccncc4)cc32)cc1 [GW300657X] please
79

Where do the numbers come from? From paper PMC7826789.
